// reported phosphorylation enrichment per item
- Test system: c-Abl (mouse);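 note: 11-residue human phosphosite peptides and single-mutation variants displayed on the E. coli surface, counted by deep sequencing, each peptide's frequency after selection divided by its frequency in the unselected input library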;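 note: frequency after pTyr selection over input frequency; kinase dosed for 20-30% of maximal phosphorylation in three min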
- testDescription: phosphorylation enrichment, bacterial display (enrichment ratio); higher = better substrate or ligand; peptides without Tyr show the background
The reply should be a number, written without any unit.

Examples with their reported phosphorylation enrichment follow.
chainSequence	endpointValue
SLGKGYSDGGC [MC4R_Y35]	0.603
FRDALYKFIVD [PHEX_Y250_M253I_YF]	0.809
NTQRPHYKGGG [TYROBP_Y111_Y111H]	0.605
FSLIHYAGIVD [MYH7_Y582]	0.609
SDVCMYRKNIF [SYNE2_Y570_YF]	0.793
ESFRLYPPVPQ [CYP4B1_Y377]	0.553

Lab note: measured phosphorylation enrichment of FENGEYIVRQG [PRKG1_Y247_I249V_YF] was 0.646

Input PAGSGYPAYLG [ATP6V1A_Y374_D371G] . Output phosphorylation enrichment: 0.525

Entry TEAGNYKLCFD [TMED1_Y103_D102N] ; phosphorylation enrichment = 0.785

###

- testedOn: Grb2 SH2 (UniProt P62993)
- Sequence (P62993 whole entry, looked up): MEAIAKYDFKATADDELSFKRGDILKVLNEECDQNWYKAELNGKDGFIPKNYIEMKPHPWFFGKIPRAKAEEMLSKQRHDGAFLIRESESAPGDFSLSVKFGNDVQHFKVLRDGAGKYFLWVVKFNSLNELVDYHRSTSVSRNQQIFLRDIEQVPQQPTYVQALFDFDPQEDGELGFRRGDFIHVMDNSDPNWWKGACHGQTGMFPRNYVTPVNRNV
- testDescription: SH2 binding enrichment of the phosphorylated peptide, bacterial display (enrichment ratio); higher = better substrate or ligand; peptides without Tyr show the background
Label Y when SH2 binding enrichment is at or above 0.8; anything below gets N.

Please review the entries below; each comes with its answer.
chainSequence	labelValue
ERTIEYLEEVA [HADHA_Y239]	N
ATDLAYFLVCK [ASL_Y375_R379C_YF]	N
MARDISRASFF [ALK_Y1278_Y1278S_YF]	Y
GENTMYAQVFN [LY9_Y603]	N
EEGRVYVYHLS [ITGAE_Y549_R552H]	N

stdin: Determine whether this sequence has SH2 binding enrichment no lower than 0.8: SLAARYFNWVS [FLT4_Y1230_YF]
stdout: Y

stdin: Is it the case that EHEALYLEADL [CENPF_Y1920] has SH2 binding enrichment reaching or exceeding 0.8?
stdout: Y

stdin: Determine whether this sequence has SH2 binding enrichment no lower than 0.8: KLVDVYVNDAF [PGK1_Y161_G158V]
stdout: Y

stdin: Form field: SH2 binding enrichment at least 0.8? Entry: YKEDPYLVVNP [MCM6_Y810_E806K]
stdout: Y

stdin: Decide: is the reported value of SH2 binding enrichment for FMKEPYIQSRF [HIPK4_Y175_V171M_YF] equal to or greater than 0.8?
stdout: Y

stdin: Record KAIMTYVSSFF [ACTN4_Y260_YF] ; criterion: SH2 binding enrichment no lower than 0.8. Met?
stdout: Y

stdin: Does SIDLGYHKDLQ [NF1_Y1169_G1166D] have a reported SH2 binding enrichment of at least 0.8?
stdout: N

stdin: Threshold query (SH2 binding enrichment >= 0.8) on YQLENCCNGGG [INS_Y108_Y108C]
stdout: N

stdin: Reported SH2 binding enrichment at or above 0.8? DLQDEYDFKCK [STAT1_Y170]
stdout: Y

stdin: Quick check, SH2 binding enrichment >= 0.8? PLLTDYSPQLQ [OTC_Y345_S340P]
stdout: Y

stdin: Hello, I need to know if FRTPGYREVVI [TNS2_Y673_A670T_YF] has measured SH2 binding enrichment not below 0.8. Thanks!
stdout: Y

stdin: Please tell me: is the sequence ENPLDYGSAWA [AR_Y395] at or over 0.8 in terms of SH2 binding enrichment?
stdout: N

stdin: Textbook exercise: given the entry EYFDGYWGYSV [ITGA2B_Y265] , state whether its SH2 binding enrichment is greater than or equal to 0.8.
stdout: Y

stdin: Given the entry YLEEEYVKAVG [TF_Y674_G671E] , answer whether its SH2 binding enrichment meets or surpasses 0.8.
stdout: N

stdin: Hello, I need to know if FQNSLYAPDYS [FAM92A_Y226_R222Q] has measured SH2 binding enrichment not below 0.8. Thanks!
stdout: Y

stdin: Given the entry LPEHPYHSRPR [NDUFA8_Y142_N140H] , answer whether its SH2 binding enrichment meets or surpasses 0.8.
stdout: Y

stdin: Is SH2 binding enrichment for CGTPTCLAPEV [CHEK2_Y390_Y390C] at or above 0.8?
stdout: Y
